What pEC50 was measured for each of the following?
assayed system: T1, human CXCR3 (human, UniProt P49682 1-368)
T1 construct: whole, on cells; also called hu-CXCR3; C-X-C chemokine receptor 3
T1 sequence (looked up): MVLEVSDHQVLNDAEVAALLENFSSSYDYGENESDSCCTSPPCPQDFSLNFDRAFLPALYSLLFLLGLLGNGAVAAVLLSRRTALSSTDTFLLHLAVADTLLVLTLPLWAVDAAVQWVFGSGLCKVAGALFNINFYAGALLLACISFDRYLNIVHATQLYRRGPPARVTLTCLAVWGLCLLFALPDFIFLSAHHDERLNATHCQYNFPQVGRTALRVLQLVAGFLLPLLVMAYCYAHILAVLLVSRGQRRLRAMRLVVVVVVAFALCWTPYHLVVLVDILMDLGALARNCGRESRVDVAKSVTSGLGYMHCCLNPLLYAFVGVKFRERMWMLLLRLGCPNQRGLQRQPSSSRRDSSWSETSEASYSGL
method summary: flow cytometry, antibody titration on CHO-CXCR3 cells
pEC50 (log units): -log10 of the concentration in mol/L.

Exam item: Endpoint output: pEC50 of 32B12 (antibody, V domains shown, Described as a fully human antibody of an IgG class and detected with anti-human IgG (gamma-chain specific); also called anti-CXCR3 antibody 32B12; clone 32B12) VH: EVQLVQSGGGLVKSGRSLRLSCTVSGFTFGNSAMSWFRQAPGKGLEWVSSISSSSSYIYYADSVKGRFTISRDNAKNSLYLQMNSLRAEDTAVYYCARDLSGRGYSYLNYWGQGTLVTVSS VL: SYELTQPPSVSAAPGQKVTISCSGSSSNIGNSYVSWFQQFPGTAPKLVIYENNKRPSGIPDRFSGSKSGTSATLGITGLQTGDEADYYCGTWDSSLSGRVFGGGTKLTVL . Value?
Marked response: 9.00

Exam item: State the recorded pEC50 for this entry: 2A3 (antibody, V domains shown, Fully human IgG class) VH: QVQLVQSGAEVKKPGSSVKVACKASGGTFSHSAISWVRQAPGQGLEWIGRTIPTLEMASYAQKFQGRVTISADKSTRTGYMELRDLRSEDTAVYYCSTQTPSYTDHWGQGTLVTVSS VL: DIVMTQTPLSLPVTLGQPASISCRSSQSLVHSDGNTYLNWFQQRPGQSPRRLIYKVSNRDSGVPDRFSGSGSGTDFTLKISRVEAEDVGVYYCMQGTHWPLTFGGGTKVEIK
Marked response: 7.96

Exam item: Find the recorded pEC50 belonging to F7 (antibody, V domains shown, Fully human IgG class; 31) VH: QVQLVQSGAEVKKPGSSVKVACKASGGTFSHSAISWVRQAPGQGLEWIGRTIPTLEMASYAQKFQGRVTISADKSTRTGYMELRDLRSEDTAVYYCSTQTPSYTDHWGQGTLVTVSS VL: DIVMTQTPLSLPVTLGQPASISCRSNQSLVHSDGNTYLYWFQQRPGQSPRRLIYKVSNRDSGVPDRFSGSGSGTDFTLKINRVEAEDVGVYYCMQGTHWPNTFGQGTKLEIK and report it.
Marked response: 8.30

Exam item: # input binder: 3A11 (antibody, V domains shown, Fully human IgG class) VH: QVQLVQSGGGLVKPGGSLRLSCAASGFTFTSSGMNWVRQAPGKGLEWVAYIFPNGKTLYPESVKGRFIITRDNAEKSLFLEMNNLRAEDMGVYYCAIDLNWGSGYWGQGTLVTVSS VL: SYVLTQPPSVSKGLRQTATLTCTGNINNVGNVGATWLQQHQGHPPKLLSDRNNNRPSGISERFSASRSGNAASLTITGLQPEDEADYYCSAWDTSLGAWVFGGGTKLTVL ; wanted: its pEC50
Marked response: 8.92

Exam item: What value of pEC50 has been recorded for this entry: 3C11 (antibody, V domains shown, Fully human IgG class) VH: EVQLVESGGGLVQPGGSLRLSCSASGFTFSSYAMHWVRQAPGKGLEYVSAISSNGGSTYYADSVKGRFTISRDNSKNTLYLQMSSLRAEDTAVYYCVKSIAAAGTQYYYYYMDVWGKGTTVTVSS VL: DIQLTQSPSSLSASVGDRVTITCRASQGIGTYLAWFQQKPGKVPKPLIYAASTLQSGVPSRFSGSGSGADFTLTISSLQPEDVATYYCQKYNSVPQTFGQGTKVEIK
Marked response: 9.22

The values you see were collected from patent US20190008955A1.
